# reported MRT inf; entries follow
Assay overview: Pharmacokinetics in rats (plasma) after oral administration
Assay setup: male, SD, rat, 5 mg/kg
Number in h, nothing else.

Solved cases (3 shown):
{"columns": ["Molecule", "Scale unit", "MRT inf"],
 "data": [
  ["[2H]C([2H])([2H])NN(C(=O)c1cc2c(cn1)nc(N)c1cnn(C)c12)C1COCc2c1ccn1c(C(F)(F)F)cnc21 (stereo not shown)", "h", 5.8],
  ["[2H]C([2H])([2H])NN(C(=O)c1ccc2nc(N)c3cnn(C)c3c2c1)C1COCc2c1ccn1c(C(F)(F)F)cnc21 (stereo not shown)", "h", 14.9],
  ["CNN(C(=O)c1cc2c3c(c(N)nc2cn1)COC3)[C@@H]1COCc2c1ccn1c(C(F)(F)F)cnc21", "h", 4.8]
]}

Now let's try a different one.
Sample [2H]C([2H])([2H])NN(C(=O)c1cc2c3c(c(N)nc2cn1)COC3)[C@H]1COCc2c1ccn1c(C(F)(F)F)cnc21 (stereo in doubt) [Example 371-P1] ; MRT inf observed: 2.5
